System: THRa:RXRa (NR concentration 90 nM, RXRa partner concentration 90 nM)
Experiment: PBM binding z-score (relative to random genomic background probes); higher = stronger binding; sequences stand for … in GC…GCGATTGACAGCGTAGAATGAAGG
OUTCOME MEASURE: PBM binding z-score
Answers are plain numbers.

Examples with answers:
{"SEQ": "TCTATTAGTTGAAGGGCAACAGACGAGTCCGTTT", "PBM binding z-score": 0.209}
{"SEQ": "TCTTGTAGATCAGCAGGTTAAAAAAGCTGGCCAA", "PBM binding z-score": 0.165}
{"SEQ": "CCTACTGGGCCAAAGGTCATTGAATCCAATGCTC", "PBM binding z-score": 3.56}
{"SEQ": "TCTATTAGTAGAAGGGCAACCGACGAGTCCGTTT", "PBM binding z-score": -0.0492}
{"SEQ": "GGAACGAGGGCAACGTTGATAGCATCTGTCGACG", "PBM binding z-score": 0.981}
{"SEQ": "TCTAGTTGGTCAAAGCTCACACACTCGAAATGCG", "PBM binding z-score": 0.0893}
{"SEQ": "TCCTGTAGATCAGCAGGTTAAGAAAGCTGGCCAA", "PBM binding z-score": 0.129}
{"SEQ": "TCGAGTAGGTTAGGAGCATTCAGAATGGCGTCGA", "PBM binding z-score": -0.459}

Go through the list and state PBM binding z-score for each entry.
1. CCGAGTGGGGCATAAGGTTACCATAAGCCAGCCC
2. GATACAGGGTTAGCTAGAGGCCAGAGTATGGAAA
3. AGAACGAGGGCACGCTGAGTTGAAAGCAGAGTAG
4. ATCTCTAGGTAAACATAGTTCAGTGAATGCAAAT
5. AATACAGGGTCACTAGGCCAGACTAGGTACGAAT

Ans.
1: 2.01; 2: 1.23; 3: 2.13; 4: 1.07; 5: 3.44

====

Tested on: RARa:RXR (NR concentration 270 nM, RXRa partner concentration 90 nM)
Test: PBM binding z-score (relative to random genomic background probes); higher = stronger binding; sequences stand for … in GC…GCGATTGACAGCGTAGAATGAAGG
Field: class. Source value: PBM binding z-score. Ranges: class 1 = under 1, class 2 = from 1 up to 4, class 3 = 4 and over

{"SEQ": "CTCGAAAGGTCGGTTGAGGTGAGTATTCGGATAA", "ASSAYED TARGET": "RARa:RXR (NR concentration 270 nM, RXRa partner concentration 90 nM)", "ASSIGNED CATEGORY": "class 2"}

Qu. Please report the category associated with AGAATGAGGTTACCCAAGATCAGGGAAACGCTTG , nothing else.
Ans. class 2

Qu. Please report the category associated with CCTTACGGGTCACGGACAGGTTATAGCATTTGGA , nothing else.
Ans. class 3

Qu. Please report the category associated with TCTTGTAGATCAAAGGTTAAGAGAGCCGAAGCCT , nothing else.
Ans. class 2

Qu. Please report the category associated with ATCTCTAGGTAAAGATAGTTCGGTGAATGCAAAT , nothing else.
Ans. class 1

Qu. Please report the category associated with ATCGAAAGGTCGAGGTTAGTATAGAGAAAGGGAA , nothing else.
Ans. class 2

====

Tested on: THRa:RXRa (NR concentration 90 nM, RXRa partner concentration 90 nM)
Test: PBM binding z-score (relative to random genomic background probes); higher = stronger binding; sequences stand for … in GC…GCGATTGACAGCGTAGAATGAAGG
Returns met if the recorded PBM binding z-score is greater than or equal to 2, and not met otherwise.

Record excerpt, results attached:
{"SEQ": "CCTATTAGTTGACCAGAAGGGCAACCGAAGCTCG", "ASSIGNED CATEGORY": "not met"}
{"SEQ": "GCTATTAGTTGAAAGGCCAACCGAATGATTCTCG", "ASSIGNED CATEGORY": "not met"}
{"SEQ": "TAGCCTAGGTAATTGGGCCAGTATAGTACGCATC", "ASSIGNED CATEGORY": "not met"}
{"SEQ": "TAGCCCAGGTCATGCGGGCCAGTATAGTGTCGGC", "ASSIGNED CATEGORY": "met"}
{"SEQ": "CGAACTAGGTCATTGTCAGGACAGTGAATAGTAA", "ASSIGNED CATEGORY": "met"}

Qu. hey, is PBM binding z-score for this one >= 2? TTACCAAGGTGTAAGGTCGTTGATGCACGCCTTG
Ans. met

Qu. hey, is PBM binding z-score for this one >= 2? TCTTGTAGATTAAAGGTTAAGAAAGCCGAAGCCT
Ans. not met

Qu. hey, is PBM binding z-score for this one >= 2? TATACAGGGTCAAAGGCAAGAGTACGAATGTCGA
Ans. met

Qu. hey, is PBM binding z-score for this one >= 2? AGTCAAAGTTCACTAGGTAACGTACGATTCAGCT
Ans. met

====

Test system: PPARg:RXRa 90nM:30nM, anti-RXR (NR concentration 90 nM, RXRa partner concentration 30 nM)
Test: PBM binding z-score (relative to random genomic background probes); higher = stronger binding; sequences stand for … in GC…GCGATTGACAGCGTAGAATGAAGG
OUTCOME MEASURE: PBM binding z-score
Give bare numbers.

{"SEQ": "TAGCCTAGGTCATTGGGCCCGTATAGTACGCATC", "PBM binding z-score": 1.74}
{"SEQ": "AGTCAAAGCTCATCTAGGTAACGTAAGATATGCT", "PBM binding z-score": 0.0855}
{"SEQ": "CGAACTAGGTCACAACAGGACAGTGAAGGATGAT", "PBM binding z-score": 6.22}
{"SEQ": "TGTCAAAGTTCAAAGGTAAAGTAAGTATCCACAC", "PBM binding z-score": 7.51}
{"SEQ": "AGACCGAGGGCAATGAGTTGATAGCACGGGTGGC", "PBM binding z-score": -0.435}

Go through the list and state PBM binding z-score for each entry.
1. CCTACTGGACCAAAGGTCATTGATTCCAATGCTC
2. CCTTACGGGTCACTAACAGGTTATAGCATTTGGA
3. ATGGAAAGGTCGAGGTGAGTATAGAGAAAGGGAA
4. TCAGACAGGTGAAGGTAACACAGGTACGCAGTCG
5. ATCTCTAGGCAACAAGTTCAGTGAAAGAGAGGAC

Ans.
10.8
2.83
2.83
3.28
1.09

Go through the list and state PBM binding z-score for each entry.
1. TAGCCTAGGTCATGCGGGCCGGTATAGTGTCGGC
2. TTACCAAGGTGAGCTGAGGCCGTTGATCCAACTC

Ans.
1.79
-0.329

Go through the list and state PBM binding z-score for each entry.
1. TCTAGTAGATCAAGCAGGTTAAGAAAGCCTGAGT
2. TTACCAAGGTGAAATGTCGTTGATGCACGCCTTG
3. TCTTGTAGATCAAGAAGGTTAAGAAAGCCTGAGT

Ans.
1.92
3.36
2.31

====

System: PPARg homodimer (NR concentration 180 nM)
Test: PBM binding z-score (relative to random genomic background probes); higher = stronger binding; sequences stand for … in GC…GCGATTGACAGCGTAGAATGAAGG
OUTCOME MEASURE: PBM binding z-score
Give bare numbers.

{"SEQ": "TCATATAGGTAAATGCTAGGTGACAGTCCGATCT", "PBM binding z-score": 0.369}

Go through the list and state PBM binding z-score for each entry.
1. CCTGCTAGGTCATGGTCAGCAAATCTACAGTATG
2. ATATGTGGGTTAAGGGTCATTCAGGTTGGTTCGC
3. TAGCCTAGGTCAGATCGGGCCGGTATACGCTATA
4. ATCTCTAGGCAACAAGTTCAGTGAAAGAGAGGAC
5. CCTTACGGGTCACTCCAGGTTATAGGATCGGAGT

Ans.
[1.03, 3.88, 0.114, 0.297, 1.86]

====

System: FXR:RXRa (NR concentration 270 nM, RXRa partner concentration 90 nM)
Assay: PBM binding z-score (relative to random genomic background probes); higher = stronger binding; sequences stand for … in GC…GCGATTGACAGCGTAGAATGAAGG
Field: class. Source value: PBM binding z-score. Ranges: Low: < 0.4; Mid: ≥ 0.4 and < 3; High: ≥ 3

Qu. Please report the category associated with GCTCGGAGGACAAGGTCAGAGTTTTGTCCGTAGA , nothing else.
Ans. Mid

Qu. Please report the category associated with AGAATGAGGTTAAGATCAGGGTAACAGAATACAT , nothing else.
Ans. Mid

Qu. Please report the category associated with ATCTCTCGGTAACAAGTTCAGTGAAAGAGAGGAC , nothing else.
Ans. Low

Qu. Please report the category associated with TCTTGTAGATCAACAGGAGGTTAAGCAAGATCGA , nothing else.
Ans. Low

Qu. Please report the category associated with TTACCAGGGTGAAAGGTCGTTGATGCACGCCTTG , nothing else.
Ans. High

Qu. Please report the category associated with GTACCAAGGTGAATAGGTGGTTGATGAGTAGGCG , nothing else.
Ans. Low

Qu. Please report the category associated with TCTGACAGGTGAAGGTAACTCAGGTACGCAGTCG , nothing else.
Ans. Mid

Qu. Please report the category associated with CGTCCAATGTCAAAGGTCAGTGAAGAGATGACGG , nothing else.
Ans. High

Qu. Please report the category associated with CCTACTGGGCCACGAAAGGTCAATGATTCAGTGA , nothing else.
Ans. High

Qu. Please report the category associated with CCTCGGAGGACAACAGGAGGTCAGAGTTGCCAGA , nothing else.
Ans. Mid

Qu. Please report the category associated with TAGCCTAGGTGATGGGCCAGTATACCACGCGAAC , nothing else.
Ans. Low

Qu. Please report the category associated with TCTCGGAGGACATGAAAGGTCAGAGCTCGACATC , nothing else.
Ans. Mid
